# protocol-summary: NCI Yeast Anticancer Drug Screen. Data for the sgs1 mgt1 strain (AID 161)
# condition-label: S. cerevisiae sgs1 mgt1 strain; at 50.0 µM unless noted
This is part of a sample that, as a whole, favours compounds with a hit. Of some 79,000 tested, about 15% had one in any assay. Active and inactive are the calls of the source. Cut-off read from the data, not from the text of the source: active = growth inhibition above about 70%; inactive = the rest.
Labels: active, inactive

- compound: "C=C=C(C)[Si](C)(C)C"
  class-label: "inactive"
- compound: "COc1cccc(Br)n1"
  class-label: "inactive"
- compound: "C=C1CC(c2ccccc2)(c2cccs2)OC1=O (stereo not drawn)"
  class-label: "active"
- compound: "O=C(O)/C=C/c1cc(Br)sc1Br"
  class-label: "inactive"
- compound: "N.N.N.N.O=C([O-])O.O=C([O-])[O-].[Co+3]"
  class-label: "inactive"
- compound: "COc1ccc2cc(N3CCCC3)ccc2c1"
  class-label: "inactive"
- compound: "O=C(OC1CCC/C=C\\CCCC1)c1ccc(Cl)cc1 (stereo not drawn)"
  class-label: "inactive"
- compound: "O=S(=O)(O)c1ccc(Nc2ccccc2)cc1"
  class-label: "inactive"
- compound: "[N-]=[N+]=C(C(=O)CN1CCCC1=O)S(=O)(=O)c1ccccc1"
  class-label: "inactive"
- compound: "CCCCCC#CC[C@@H](O)[C@@H](O)COCc1ccccc1"
  class-label: "inactive"
- compound: "COc1cc(C(=O)O)cc(I)c1OC"
  class-label: "inactive"
- compound: "CCCCC/C([O-])=C1/C(=O)N(c2ccccc2)N=C1C.CCCCC/C([O-])=C1/C(=O)N(c2ccccc2)N=C1C.[Cu+2]"
  class-label: "inactive"
- compound: "CS(=O)(=O)OCCN(CCOS(C)(=O)=O)c1ccc([N+](=O)[O-])cc1[N+](=O)[O-]"
  class-label: "inactive"
- compound: "O=c1oc(-c2ccccc2)nc2c1sc1nc(-c3ccccc3)oc(=O)c12"
  class-label: "inactive"
- compound: "CCOC(=O)c1ccc(N=C2S/C(=C\\C(=S)Nc3ccccc3)N(c3ccccc3)C2=Nc2ccc(C(=O)OCC)cc2)cc1"
  class-label: "inactive"
- compound: "CC(=O)Nc1ccc2nc(SC(C)C)sc2c1"
  class-label: "inactive"
- compound: "Nc1ccc(S(=O)(=O)CCS(=O)(=O)c2ccc(N)cc2)cc1"
  class-label: "inactive"
- compound: "CC(=O)Nc1nnn(C)n1"
  class-label: "inactive"
- compound: "O=C(CCS(=O)(=O)CCC(=O)c1ccc2ccccc2c1)c1ccc2ccccc2c1"
  class-label: "inactive"
- compound: "C[N+](C)=c1nc(N2CCOCC2)ss1"
  class-label: "inactive"
- compound: "COC(=O)N/N=C(/CCC(=O)Nc1ccc(C)c(C)c1)CC(=O)C(C)(C)C"
  class-label: "inactive"
- compound: "O=c1cc(C(F)(F)F)[nH]c2ccc(F)cc12"
  class-label: "inactive"
- compound: "Cc1ccc(C=NC23CC4CC(CC(C4)C2)C3)cc1"
  class-label: "inactive"
